B1: RSPH3 (parent)
chain: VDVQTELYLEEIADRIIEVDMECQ

- Variants of: B1
- METHOD NOTES: protein stability index of a GFP-peptide fusion (GPS, HEK-293T) (PSI 1-6); higher = more stable;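 further: lentivirally expressed fusions sorted by FACS into six bins by GFP to DsRed ratio, PSI derived from sequencing read proportions per bin multiplied by bin number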
- CONDITION NOTES: c terminus: a fixed tail appended
EXPERIMENTAL READOUT: protein stability index
One number for each entry.

Below, 10 variants whose answers are already recorded.
R15W	3.01
C23M	2.34
D2S	1.81
E11Y	2.88
D20A	2.54
L9K	4.65
I12A	4.36
Q24D	2.82
I12K	4.77
M21D	4.54

Can you give me protein stability index for all of these, one by one?
1. L7T
2. Q24T
3. I16R
4. C23N
5. L9I
6. V3T
7. T5P

3
3.69
3.23
3.87
2.33
2.92
3.27

These entries and their values trace back to the supplement of paper PMC10567573.
